# TARGET UNDER TEST: HuR full length (UniProt Q15717 1-326)
# Sequence (Q15717 whole entry): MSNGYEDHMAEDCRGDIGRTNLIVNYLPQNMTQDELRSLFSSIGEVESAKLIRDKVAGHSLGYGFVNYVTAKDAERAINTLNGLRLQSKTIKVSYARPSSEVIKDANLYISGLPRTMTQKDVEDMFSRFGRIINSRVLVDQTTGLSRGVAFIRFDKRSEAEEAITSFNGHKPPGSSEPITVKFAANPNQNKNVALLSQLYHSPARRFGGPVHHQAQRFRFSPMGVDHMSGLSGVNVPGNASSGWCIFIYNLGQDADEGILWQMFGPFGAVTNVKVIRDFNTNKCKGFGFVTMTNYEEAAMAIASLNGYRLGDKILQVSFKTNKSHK
# ASSAY DETAILS: fluorescence polarization; 2 nM RNA; FP: room temperature, 2 h incubation in the competition assay, buffer not given (as in cited ref 22); NMR: 100 mM NaCl, 10 mM sodium phosphate pH 6.8, 10% D2O
# TEST CONTEXT: protein: recombinant; single strand
METRIC NAME: Kd (nM)
Record the value in nM, omitting the unit from your answer.

# Kd lookup, item AUUUUUAUUUU (ssRNA) [AREc-fos (fluorescein)]
3.3

Entry source: paper PMC5393604
